Some compounds, each annotated with its measured pKd.
tgt: XIAP BIR-3 (Homo sapiens, UniProt P98170)
Construct: 40 nM of the respective IAP BIR3
Sequence (P98170 241-356 limits assumed): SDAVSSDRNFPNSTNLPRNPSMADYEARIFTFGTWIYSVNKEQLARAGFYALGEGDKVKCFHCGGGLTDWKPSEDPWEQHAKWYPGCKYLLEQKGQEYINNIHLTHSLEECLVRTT
testProtocol: Fluorescence polarization binding to XIAP BIR-3 with labeled peptide AbuRPF-K(5-Fam)-NH2
conditionSet: 40 nM BIR3, 5 nM labeled peptide, reported as ranges
pKd: −log10 of the molar value.
quantityName: pKd

- compound: "CN[C@@H](CF)C(=O)N[C@H](C(=O)N1CC[C@@H]2[C@H]1[C@@H](OCc1ccccc1)CN2C(=O)OC(C)(C)C)C1CCCCC1 [Example 32]"
  observedValue: "> 7.00"
- compound: "CN[C@@H](C)C(=O)N[C@H](C(=O)N1CC[C@@H]2[C@H]1[C@@H](COc1ccc(F)c(F)c1)CN2C(=O)C1CC1)C(C)(C)C [Example 69]"
  observedValue: "6.00 to 7.00"
- compound: "CN[C@@H](C)C(=O)N[C@H](C(=O)N1CC[C@@H]2[C@H]1[C@@H](OC(=O)Nc1ccccc1)CN2C(=O)NC(C)C)C(C)(C)C [Example 47]"
  observedValue: "6.00 to 7.00"
- compound: "CNC(=O)N1C[C@H](Oc2ccc(F)cc2)[C@@H]2[C@H]1CCN2C(=O)[C@@H](NC(=O)[C@H](C)NC)C(C)(C)C [Example 27]"
  observedValue: "> 7.00"
- compound: "CCCCNC(=O)O[C@H]1CN(C(=O)NC(C)C)[C@@H]2CCN(C(=O)[C@@H](NC(=O)[C@H](C)NC)C(C)(C)C)[C@H]12 [Example 53]"
  observedValue: "6.00 to 7.00"
- compound: "CN[C@@H](C)C(=O)N[C@H](C(=O)N1CC[C@@H]2[C@H]1[C@@H](Oc1ccc(F)c(F)c1)CN2S(C)(=O)=O)C(C)C [Example 12]"
  observedValue: "> 7.00"
- compound: "CN[C@@H](C)C(=O)N[C@H](C(=O)N1CC[C@@H]2[C@H]1[C@@H](Oc1ccc(F)c(F)c1)CN2C(=O)N(C)C)C(C)(C)C [Example 25]"
  observedValue: "> 7.00"
- compound: "CN[C@@H](C)C(=O)N[C@H](C(=O)N1CC[C@@H]2[C@H]1[C@@H](OC(=O)NC1CCCC1)CN2C(=O)NC(C)C)C(C)(C)C [Example 56]"
  observedValue: "6.00 to 7.00"
- compound: "CN[C@@H](C)C(=O)N[C@H](C(=O)N1CC[C@@H]2[C@H]1[C@@H](OC(=O)NC(C)C)CN2C(=O)NC(C)C)C(C)(C)C [Example 54]"
  observedValue: "5.00 to 6.00"
- compound: "CN[C@@H](C)C(=O)N[C@H](C(=O)N1CC[C@@H]2[C@H]1[C@@H](COc1ccc(F)c(F)c1)CN2C(=O)CC(C)C)C(C)(C)C [Example 71]"
  observedValue: "> 7.00"
- compound: "CNC(=O)N1C[C@H](Oc2ccc(F)c(F)c2)[C@@H]2[C@H]1CCN2C(=O)[C@@H](NC(=O)[C@H](C)NC)C(C)(C)C [Example 23]"
  observedValue: "> 7.00"
- compound: "CN[C@@H](CF)C(=O)N[C@H](C(=O)N1CC[C@H]2NC[C@H](OCc3ccccc3)[C@H]21)C1CCCCC1 [Example 33]"
  observedValue: "6.00 to 7.00"
- compound: "CN[C@@H](C)C(=O)N[C@H](C(=O)N1CC[C@@H]2[C@H]1[C@@H](OCc1ccc(F)cc1)CN2C1CCCC1)C(C)(C)C [Example 44]"
  observedValue: "6.00 to 7.00"

* * *

tgt: cIAP-1 BIR-3 (Homo sapiens, UniProt Q13490)
Construct: 40 nM of the respective IAP BIR3
Sequence (Q13490 253-363 limits assumed): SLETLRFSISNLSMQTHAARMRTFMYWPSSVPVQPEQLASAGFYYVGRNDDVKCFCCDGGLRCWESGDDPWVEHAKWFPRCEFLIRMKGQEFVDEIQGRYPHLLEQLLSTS
testProtocol: Fluorescence polarization binding to cIAP-1 BIR-3 with labeled peptide AbuRPF-K(5-Fam)-NH2
conditionSet: 40 nM BIR3, 5 nM labeled peptide, reported as ranges, read-out: KD (c-IAP-1 BIR3)
pKd: −log10 of the molar value.
quantityName: pKd

- smilesStructure: "CN[C@@H](C)C(=O)N[C@H](C(=O)N1CC[C@@H]2[C@H]1[C@@H](OCc1ccc(F)cc1)CN2S(=O)(=O)CC(C)C)C(C)(C)C"
  observedValue: "> 7.00"
- smilesStructure: "CN[C@@H](C)C(=O)N[C@H](C(=O)N1CC[C@@H]2[C@H]1[C@@H](Oc1ccc(F)cc1)CN2S(C)(=O)=O)[C@@H](C)OC"
  observedValue: "> 7.00"
- smilesStructure: "CN[C@@H](C)C(=O)N[C@H](C(=O)N1CC[C@@H]2[C@H]1[C@@H](O)CN2C(=O)NC(C)C)C(C)(C)C"
  observedValue: "6.00 to 7.00"
- smilesStructure: "CN[C@@H](CF)C(=O)N[C@H](C(=O)N1CC[C@@H]2[C@H]1[C@@H](OCc1ccccc1)CN2C(=O)OC(C)(C)C)C1CCCCC1"
  observedValue: "> 7.00"
- smilesStructure: "CN[C@@H](C)C(=O)N[C@H](C(=O)N1CC[C@@H]2[C@H]1[C@@H](OC(=O)Nc1ccc3ccccc3c1)CN2C(=O)NC(C)C)C(C)(C)C"
  observedValue: "> 7.00"
- smilesStructure: "CN[C@@H](C)C(=O)N[C@H](C(=O)N1CC[C@@H]2[C@H]1[C@@H](OCc1ccc(F)cc1)CN2C(=O)NCc1ccccc1)C(C)(C)C"
  observedValue: "> 7.00"

* * *

tgt: cIAP-1 BIR-3 (Homo sapiens, UniProt Q13490)
Construct: 40 nM of the respective IAP BIR3
testProtocol: Fluorescence polarization binding to cIAP-1 BIR-3 with labeled peptide AbuRPF-K(5-Fam)-NH2
conditionSet: 40 nM BIR3, 5 nM labeled peptide, reported as ranges, read-out: KD (c-IAP-1 BIR3)
Experimental: The binding affinities of the compounds are reported as a KD value (μM). […] Following incubation, the polarization values (mP) were measured on a Victor2V (available from PerkinElmer Life Sciences) using a 485 nm excitation filter and a 520 nm emission filter. […]
pKd: −log10 of the molar value.
Some compounds, each annotated with its measured pKd.

- compound: "CN[C@@H](C)C(=O)N[C@H](C(=O)N1CC[C@@H]2[C@H]1[C@@H](OCc1ccc(F)cc1)CN2C1CCOCC1)C(C)(C)C [Example 43]"
  pKd: "> 7.00"
- compound: "CN[C@@H](C)C(=O)N[C@H](C(=O)N1CC[C@@H]2[C@H]1[C@@H](COc1ccc(F)c(F)c1)CN2C(=O)C1CC1)C(C)(C)C [Example 69]"
  pKd: "> 7.00"
- compound: "CN[C@@H](CF)C(=O)N[C@H](C(=O)N1CC[C@H]2NC[C@H](OCc3ccccc3)[C@H]21)C1CCCCC1 [Example 33]"
  pKd: "> 7.00"
- compound: "CN[C@@H](C)C(=O)N[C@H](C(=O)N1CC[C@@H]2[C@H]1[C@@H](OCc1ccc(F)cc1)CN2C(=O)OC(C)(C)C)C(C)(C)C [Example 34]"
  pKd: "> 7.00"
- compound: "CNC(=O)N1C[C@H](Oc2ccc(F)cc2)[C@@H]2[C@H]1CCN2C(=O)[C@@H](NC(=O)[C@H](C)NC)C1CCCCC1 [Example 26]"
  pKd: "> 7.00"
- compound: "CN[C@@H](C)C(=O)N[C@H](C(=O)N1CC[C@@H]2[C@H]1[C@@H](OC(=O)N(C)c1ccccc1)CN2C(=O)NC(C)C)C(C)(C)C [Example 50]"
  pKd: "> 7.00"
- compound: "CN[C@@H](C)C(=O)N[C@H](C(=O)N1CC[C@@H]2[C@H]1[C@@H](COc1ccc(F)c(F)c1)CN2S(C)(=O)=O)C(C)(C)C [Example 63]"
  pKd: "> 7.00"
- compound: "CN[C@@H](C)C(=O)N[C@H](C(=O)N1CC[C@@H]2[C@H]1[C@@H](OC(=O)N1CCCC1)CN2C(=O)NC(C)C)C(C)(C)C [Example 58]"
  pKd: "6.00 to 7.00"
- compound: "CN[C@@H](C)C(=O)N[C@H](C(=O)N1CC[C@@H]2[C@H]1[C@@H](OCc1ccc(F)cc1)CN2C(=O)N(C)C)C(C)(C)C [Example 41]"
  pKd: "> 7.00"
- compound: "CN[C@@H](C)C(=O)N[C@H](C(=O)N1CC[C@@H]2[C@H]1[C@@H](OCc1ccc(F)cc1)CN2C(=O)C(C)=O)C(C)(C)C [Example 42]"
  pKd: "> 7.00"

* * *

tgt: cIAP-1 BIR-3 (Homo sapiens)
Construct: 40 nM of the respective IAP BIR3
testProtocol: Fluorescence polarization binding to cIAP-1 BIR-3 with labeled peptide AbuRPF-K(5-Fam)-NH2
conditionSet: 40 nM BIR3, 5 nM labeled peptide, reported as ranges, read-out: KD (c-IAP-1 BIR3)
quantityName: Kd

- smilesStructure: "CN[C@@H](C)C(=O)N[C@H](C(=O)N1CC[C@@H]2[C@H]1[C@@H](Oc1ccc(F)c(F)c1)CN2S(C)(=O)=O)C(C)(C)C"
  observedValue: "< 100 nM"
- smilesStructure: "CN[C@@H](C)C(=O)N[C@H](C(=O)N1CC[C@@H]2[C@H]1[C@@H](Oc1ccc(F)c(F)c1)CN2S(C)(=O)=O)C1CCCCC1"
  observedValue: "< 100 nM"
- smilesStructure: "CNC(=O)N1C[C@H](Oc2ccc(F)c(F)c2)[C@@H]2[C@H]1CCN2C(=O)[C@@H](NC(=O)[C@H](C)NC)C(C)(C)C"
  observedValue: "< 100 nM"
